meta.source: patent US11214803B2

system: Yap1 mRNA; assay: Antisense inhibition of human Yap1 in SNU-449 cells by modified oligonucleotides, single dose (Example 5, RTS36584); assay type: cell-based; conditions: Table 50; Yap1 mRNA remaining as percent of untreated control (UT), SNU-449 cells, single dose
Strand notation (5' to 3'): a small letter for the sugar, then the base; units joined by * are phosphorothioate-linked, units joined directly phosphodiester-linked; [ ] holds rarer units or linkages, { } end groups; capitals alone tell only the bases. e = 2'-O-(2-methoxyethyl) (MOE); k = constrained ethyl (cEt); [5mC] = 5-methylcytosine; d = 2'-deoxy (DNA); m = 2'-O-methyl
measurementName: YAP1 (% UT)
One number for each entry, in % UT.

substance	resultNumber
1198615 (antisense kT*kT*kA*dA*dA*dG*dT*dG*dT*dA*dT*dG*kT*k[5mC]*kA*eG) [Compound 1198615]	10

Batch: YAP1 (% UT) for all items listed.
1. 958499 (kA*kT*kT*dA*dG*dA*dG*dT*dA*dT*dG*dT*dG*kG*k[5mC]*kA) [Compound 958499]
2. 1197281 (kA*kT*kT*dG*mU*d[5mC]*dT*dC*dA*dT*dG*d[5mC]*d[5mC]*kT*kT*kA; antisense) [Compound 1197281]
3. 1197233 (antisense kT*kA*kG*dA*mG*dT*dA*dT*dG*dT*dG*dG*d[5mC]*kA*kA*kT) [Compound 1197233]

Response:
1: 12; 2: 42; 3: 36

====

Answer each item with its documented YAP1 (% UT).
test system: Yap1 mRNA; assay: Antisense inhibition of human Yap1 in SNU-449 cells by modified oligonucleotides, single dose (Example 5, RTS36584); type: cell-based; details: Table 50; Yap1 mRNA remaining as percent of untreated control (UT), SNU-449 cells, single dose
Strand notation (5' to 3'): a small letter for the sugar, then the base; units joined by * are phosphorothioate-linked, units joined directly phosphodiester-linked; [ ] holds rarer units or linkages, { } end groups; capitals alone tell only the bases. e = 2'-O-(2-methoxyethyl) (MOE); k = constrained ethyl (cEt); [5mC] = 5-methylcytosine; d = 2'-deoxy (DNA); m = 2'-O-methyl
Answers are plain numbers, in % UT.

Recorded results for 5 substances are shown here.
substance	YAP1 (% UT)
1198614 (antisense kT*kA*kA*dA*dG*dT*dG*dT*dA*dT*dG*dT*k[5mC]*kA*kG*eA) [Compound 1198614]	4
1197236 (antisense kT*kA*kT*dT*mA*dG*dA*dG*dT*dA*dT*dG*dT*kG*kG*k[5mC]) [Compound 1197236]	17
1197292 (kA*k[5mC]*kT*dT*mU*dT*dA*d[5mC]*dA*dT*dT*dA*dG*kG*kA*kA; antisense) [Compound 1197292]	84
1198611 (antisense kA*kG*kT*dG*dT*dA*dT*dG*dT*d[5mC]*dA*dG*kA*kA*kG*eA) [Compound 1198611]	7
1198596 (antisense k[5mC]*kT*k[5mC]*dT*dT*dA*dT*dA*dT*dG*dG*dT*kT*kT*kT*eG) [Compound 1198596]	16

Batch: YAP1 (% UT) for all items listed.
1. 1198593 (antisense kT*kT*kA*dT*dA*dT*dG*dG*dT*dT*dT*dT*kG*kT*kG*eT) [Compound 1198593]
2. 1198604 (antisense kT*kA*kA*dT*dA*dT*dT*dG*d[5mC]*dA*dA*dT*k[5mC]*kT*kG*eT) [Compound 1198604]

Response:
1: 45; 2: 48

====

test system: Yap1 mRNA; assay: Antisense inhibition of human Yap1 in A-431 cells by cEt gapmers, single dose (Example 4, RTS4814); format: cell-based; conditions: Yap1 mRNA remaining as percent of untreated control; 3-10-3 cEt gapmers; A-431 cells; Table 37
Strand notation (5' to 3'): a small letter for the sugar, then the base; units joined by * are phosphorothioate-linked, units joined directly phosphodiester-linked; [ ] holds rarer units or linkages, { } end groups; capitals alone tell only the bases. k = constrained ethyl (cEt); [5mC] = 5-methylcytosine; d = 2'-deoxy (DNA)
Answer each item with its documented YAP1 (% UTC).
One number for each entry, in % UTC.

Recorded results for 2 substances are shown here.
substance	unitsText	resultNumber
1074871 (kT*kG*kT*dA*dA*dG*dT*dA*d[5mC]*d[5mC]*dT*dA*dA*k[5mC]*kA*kT; antisense) [compound 1074871]	% UTC	70
1075607 (antisense kA*kA*kA*dA*d[5mC]*dG*dG*dT*dG*dT*dG*dA*dA*kG*kA*kA) [compound 1075607]	% UTC	45

Here is the next item to consider.
Query: Query YAP1 (% UTC) on Yap1 mRNA for 1075127 (kG*k[5mC]*kT*dA*dA*dA*dT*dT*dA*dT*dG*d[5mC]*dT*kA*kT*kT; antisense) [compound 1075127]
Response: 79

====

Answer each item with its documented IC50.
Tested on: Yap1 mRNA
Test: Dose-dependent inhibition of human Yap1 in SNU-449 cells (Example 9, RTS36584)
Format: cell-based
Conditions: free uptake, linear regression on a log/linear plot
Method: Modified oligonucleotides described in the studies above were tested at various doses in SNU-449 cells. […] After approximately 48 hours, Yap1 mRNA levels were measured as previously described using the Human Yap1 primer-probe set RTS36584. Yap1 mRNA levels were normalized to total RNA content, as measured by RIBOGREEN®. […] IC50s were calculated using a linear regression on a log/linear plot of the data in excel.
Strand notation (5' to 3'): a small letter for the sugar, then the base; units joined by * are phosphorothioate-linked, units joined directly phosphodiester-linked; [ ] holds rarer units or linkages, { } end groups; capitals alone tell only the bases. e = 2'-O-(2-methoxyethyl) (MOE); k = constrained ethyl (cEt); [5mC] = 5-methylcytosine; d = 2'-deoxy (DNA)
Answers are plain numbers, in µM.

substance	resultNumber
1198570 (kG*k[5mC]*kA*d[5mC]*dT*dT*dT*dT*dA*d[5mC]*dA*dT*kT*kA*kG*eG) [compound 1198570]	0.04

Batch: IC50 for all items listed.
1. 1198457 (kA*kT*dT*dG*dT*d[5mC]*dT*d[5mC]*dA*dT*dG*e[5mC]*k[5mC]*eT*kT*eA; antisense) [compound 1198457]
2. 1198397 (k[5mC]*dA*d[5mC]*dT*dT*dT*dT*dA*d[5mC]*dA*dT*kT*eA*kG*eG*kA; antisense) [compound 1198397]
3. 1198804 (kT*kG*dT*d[5mC]*dT*d[5mC]*dA*dT*dG*d[5mC]*d[5mC]*kT*eT*kA*eT*kA; antisense) [compound 1198804]

Response:
0.2
0.1
0.1

====

Answer each item with its documented GLU.
assay: Cynomolgus monkey tolerability, kidney and liver function markers (Example 34); conditions: cynomolgus monkeys, 35 mg/kg subcutaneously, day 44
Be sure to follow the number with its unit.

Recorded results for 2 substances are shown here.
substance	GLU
1198831 (CACTTTTACATTAGGA; chemically modified gapmer, further chemistry not given here) [compound 1198831]	73 mg/dL
1198439 (AGTGTATGTCAGAAGA; sugar, 5-methylcytosine, phosphorothioate modifications, further chemistry not given here) [compound 1198439]	115 mg/dL

Here is the next item to consider.
Query: Quick one: GLU of 1198605 (GTAATATTGCAATCTG; modified gapmer, further chemistry not given here) [compound 1198605] ?
Response: 69 mg/dL

====

system: Yap1 mRNA; assay: Dose-dependent inhibition of human Yap1 in SNU-449 cells (Example 9, RTS36584); assay type: cell-based; details: 500.0 nM, free uptake, approximately 48 hours
Strand notation (5' to 3'): a small letter for the sugar, then the base; units joined by * are phosphorothioate-linked, units joined directly phosphodiester-linked; [ ] holds rarer units or linkages, { } end groups; capitals alone tell only the bases. e = 2'-O-(2-methoxyethyl) (MOE); k = constrained ethyl (cEt); [5mC] = 5-methylcytosine; d = 2'-deoxy (DNA)
measurementName: % UTC (Yap1 mRNA)

substance	result
1198494 (kG*kT*dG*d[5mC]*dT*dT*dT*dG*dG*dA*dA*eG*kA*eT*k[5mC]*eT; antisense) [compound 1198494]	24 % UTC
1198500 (kA*kT*dT*dT*dA*dG*dG*dA*dT*dG*d[5mC]*eA*kT*eG*kG*eT; antisense) [compound 1198500]	34 % UTC

Here is the next item to consider.
Query: Query % UTC (Yap1 mRNA) on Yap1 mRNA for 1198958 (kT*kG*dT*dA*dT*dG*dT*d[5mC]*dA*dG*dA*kA*dG*kA*dG*kT; antisense) [compound 1198958]
Response: 16 % UTC

====

Answer each item with its documented Yap1 mRNA, % UTC.
tested on: Yap1 mRNA; experiment: Dose-dependent inhibition of human Yap1 in A-431 cells (Example 8, 10,000 cells per well, RTS4814); assay type: cell-based; details: 500.0 nM; A-431 cells, 10,000 cells per well, free uptake, approximately 48 hours, RTS4814
Strand notation (5' to 3'): a small letter for the sugar, then the base; units joined by * are phosphorothioate-linked, units joined directly phosphodiester-linked; [ ] holds rarer units or linkages, { } end groups; capitals alone tell only the bases. k = constrained ethyl (cEt); [5mC] = 5-methylcytosine; d = 2'-deoxy (DNA)
Numbers only, in % UTC.

substance	Yap1 mRNA, % UTC, % UTC
1075816 (kT*kA*kG*dT*dA*dT*dA*dA*dA*dG*d[5mC]*dA*dG*kG*kG*k[5mC]; antisense) [compound 1075816]	12
1076462 (kT*k[5mC]*kA*dG*dA*dA*dG*dG*dA*dT*dA*dT*dG*k[5mC]*kA*kG; antisense) [compound 1076462]	8

Here is the next item to consider.
Query: Quick one: Yap1 mRNA, % UTC of 1076416 (kA*k[5mC]*k[5mC]*dG*dA*dA*dA*dT*dG*dA*dT*dA*d[5mC]*kT*kG*kA; antisense) [compound 1076416] ?
Response: 13
